# target desc: Muscarinic acetylcholine receptor M5 (Rattus norvegicus)
# Sequence (P08911 whole entry): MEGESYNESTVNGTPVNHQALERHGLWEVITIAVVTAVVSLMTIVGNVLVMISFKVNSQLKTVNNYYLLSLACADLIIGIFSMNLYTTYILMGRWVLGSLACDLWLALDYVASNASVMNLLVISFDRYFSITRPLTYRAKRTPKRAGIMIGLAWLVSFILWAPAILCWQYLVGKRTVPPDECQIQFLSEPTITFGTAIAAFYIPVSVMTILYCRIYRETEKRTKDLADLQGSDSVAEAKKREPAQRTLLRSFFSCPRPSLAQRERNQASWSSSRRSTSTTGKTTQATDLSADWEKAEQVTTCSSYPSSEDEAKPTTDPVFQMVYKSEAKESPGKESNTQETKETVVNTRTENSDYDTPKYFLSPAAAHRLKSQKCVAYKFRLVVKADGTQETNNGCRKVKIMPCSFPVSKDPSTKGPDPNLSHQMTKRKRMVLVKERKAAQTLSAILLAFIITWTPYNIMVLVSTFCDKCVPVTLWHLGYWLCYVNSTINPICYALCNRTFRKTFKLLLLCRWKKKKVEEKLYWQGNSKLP
# assay protocol: Antagonist activity at rat muscarinic M5 receptor expressed in CHO cells in the presence of acetylcholine by calcium mobilisation assay
assay readout: IC50 (µM)
Just the number please, in µM, no unit attached.

# molecular string, assay readout, assay value
rows = [
    ("C[C@H]1CN(S(=O)(=O)c2ccc3c(c2)CCO3)C[C@@H]1C(=O)Nc1ccc2scnc2c1", "IC50", 0.19),
]

In the following, a different molecule is considered.
Query IC50 for O=C(Nc1ccc2scnc2c1)[C@@H]1CCN(S(=O)(=O)c2ccc3ncsc3c2)C1
0.55

* * *

Catalogue of CLint scaled values
# assay protocol: Intrinsic clearance in rat
# Type: ADME
Just the number please, in mL/min/kg, no unit attached.

Example entries and their recorded answers appear below.
# compound, assay value
records = [
    ("O=C(Nc1ccc2scnc2c1)[C@@H]1CCN(S(=O)(=O)c2ccc3ncccc3c2)C1", 191),
    ("O=C(Nc1ccc2scnc2c1)C12CC1CN(S(=O)(=O)c1ccc3c(c1)CCO3)C2 (racemic)", 396),
    ("C[C@@H]1CN(S(=O)(=O)c2ccc3c(c2)CCO3)C[C@@H]1C(=O)Nc1ccc2scnc2c1", 769),
]

Query CLint scaled for C[C@H]1CN(S(=O)(=O)c2ccc3c(c2)CCO3)C[C@@H]1C(=O)Nc1ccc2scnc2c1
51

Query CLint scaled for O=C(Nc1ccc2scnc2c1)C1CN(S(=O)(=O)c2ccc3c(c2)CCO3)C1
301
